experiment description: NCI Yeast Anticancer Drug Screen. Data for the mec2-1 strain (AID 157)
assay context: S. cerevisiae mec2-1 strain, at 50.0 µM, hits give high values
The panel holds about 79,000 compounds, 15% with a hit somewhere; the sample as a whole holds those more often.

{"columns": ["compound", "unit symbol", "growth inhibition"],
 "data": [
  ["CCOC(=O)/C(=C\\c1ccc(Br)cc1)C(C)=O", "%", 94.2],
  ["S=C(N/N=C(/c1ccccc1)c1ccccn1)N1CCCCC1", "%", 86.3],
  ["CN(C)c1ccc(/C=C/C(=O)c2ccc([N+](=O)[O-])cc2)cc1", "%", -16],
  ["CN(C)c1cc(N(C)C)c2cc(-c3ccccc3)sc2n1", "%", 17.2],
  ["COc1ccc(C2c3cc4c(cc3OC(C)(O)C2C)OCO4)cc1 (stereo not given)", "%", 95.4],
  ["O=C(Nc1ccc(Br)cc1)Oc1ccccc1C(=O)Nc1ccccc1", "%", 70.3],
  ["c1cc[c]([Sn]([S]c2ccccn2)([c]2ccccc2)[c]2ccccc2)cc1", "%", 99.5],
  ["O=S(=O)(Nc1ccccc1)c1ccccc1C#Cc1ccccc1", "%", 79.2],
  ["OCCCNc1nc2c(Cl)cc(Cl)cc2c2ccccc12", "%", 15.4],
  ["Cc1cc(SCc2ccccc2)cc(C)[o+]1", "%", 44.4],
  ["O=c1oc2c/c(=C\\c3ccccc3)c(=O)c3cccc1c3-2", "%", 88.7],
  ["CC(=O)/C(=C/n1c(=S)[nH]c2ccc([N+](=O)[O-])cc21)C(=O)Nc1ccc(Cl)cc1", "%", 6.75],
  ["NC(=S)c1cccc(OCCCOc2ccccc2)c1", "%", 99.6],
  ["[Br][Pt+2][Br].[NH-]c1cccc(I)c1.[NH-]c1cccc(I)c1", "%", 22.2],
  ["COC(=O)C1(c2ccc(N(C)C)cc2OC)CCCN(C(=O)Oc2ccccc2[N+](=O)[O-])CCc2c1[nH]c1ccccc21 (stereo not given)", "%", 66.8],
  ["Cc1ccccc1C(=O)c1ccc(O)c2ccccc12", "%", 94.5],
  ["O=C(O)C1(Cc2ccc3c(c2)CCC3)Cc2ccccc2C1=O (stereo not given)", "%", 92.4],
  ["COc1ccc(C2=C(Cl)C(=O)N(c3ccc(Cl)cc3)C(=O)C2(Cl)Cl)cc1", "%", 98.2],
  ["CC(=O)N(O)c1ccc2c(c1)Cc1cc(F)ccc1-2", "%", 94],
  ["Cc1ccc(N2C(=O)C(Cl)=C(Cl)C2=O)cc1", "%", 99.4],
  ["c1ccc2c(CCc3ccncc3)c[nH]c2c1", "%", 45.1],
  ["CCN1CCC(O)(/C=C/c2ccccc2)C(C(=O)/C=C/c2ccccc2)C1 (stereo not given)", "%", 98.2],
  ["ON(C(=Nc1ccc(Cl)cc1)c1ccccc1)c1ccccc1", "%", 99.2],
  ["CCOC(=O)/C=C\\c1c(Cl)n(-c2ccccc2)c(=O)n(-c2ccccc2)c1=O", "%", 90.5],
  ["Cc1ccccc1N=Nc1ccccc1", "%", 99.4],
  ["CCCCCCCOC(=O)c1cc2cc(C(CC)C(CC)c3ccc(O)cc3)ccc2oc1=O (stereo not given)", "%", 91.3],
  ["Fc1ccc(OCCC(Cn2ccnc2)c2ccc(Cl)cc2Cl)cc1 (stereo not given)", "%", 99.8],
  ["CCCc1cc2c(cc1O)CC[C@@H]1[C@@H]2CC[C@]2(C)[C@@H](O)CC[C@@H]12", "%", 85.8],
  ["N#CC=Cc1ccc([N+](=O)[O-])s1 (mixture of isomers)", "%", 90.8],
  ["COC(=O)[C@@H]1c2cc3c(c(O)c2[C@@H](OC)C[C@@]1(C)O)C(=O)c1c(O)cc2c(c1C3=O)OC1O[C@@]2(C)[C@H](O)[C@@H](N(C)C)[C@@H]1O", "%", 94],
  ["O=C(O)CC(C(=O)O)C(c1cccc2ccccc12)c1cccc2ccc3ccccc3c12 (stereo not given)", "%", 98.2],
  ["Cc1ccc(S(=O)(=O)C2C=CC=CC=C2)cc1", "%", 86],
  ["Oc1ccc(C/C=C/c2ccccc2)cc1O", "%", 99.1],
  ["O=C(NO)C(=O)Nc1cc(Cl)ccc1Cl", "%", 73],
  ["O=C1C=CC(=O)C2C3C=CC(CC3)C12 (stereo not given)", "%", 43.6],
  ["c1ccc2cc3c(ccc4cccc[n+]43)cc2c1", "%", 18],
  ["CCn1c2ccc([N+](=O)[O-])cc2c2c([N+](=O)[O-])c(-n3cccc3)ccc21", "%", 0.3],
  ["Cc1ccc(N2CCN(c3c(N)cncc3Br)CC2)cc1", "%", 97.3],
  ["O=C(NC1CCN(Cc2ccccc2)CC1)c1cccc(I)c1", "%", 58],
  ["O=C(O)c1c(-c2ccccc2)cc(-c2ccccc2)cc1-c1ccccc1", "%", 99.2],
  ["CS(=O)(=O)C(c1nc2nnc(NC(=O)Nc3ccc(Cl)cc3)n2[nH]c1=O)c1nc2nnc(NC(=O)Nc3ccc(Cl)cc3)n2[nH]c1=O", "%", 74.5],
  ["Oc1ccc(O)c2c1CC=C(Cl)C2", "%", 52.9],
  ["O=S(=O)(Nc1ccccn1)c1ccc(NCc2c3ccccc3nc3cc(Cl)ccc23)cc1", "%", 55.2],
  ["Clc1ccc([I+]c2cccs2)cc1", "%", 98.7],
  ["CC1Cc2cc(O)c(O)cc2-c2cc(O)c(O)cc2CC1C (stereo not given)", "%", 83.8]
]}

###

experiment description: NCI Yeast Anticancer Drug Screen. Data for the mlh1 rad18 strain (AID 175)
assay context: S. cerevisiae mlh1 rad18 strain growth inhibition; at 50.0 µM; hits give high values
This is part of a sample that, as a whole, favours compounds with a hit. Of some 79,000 tested, about 15% had one in any assay.
The entries below are paired with their reported growth inhibition.
quantity: growth inhibition (%)

{"columns": ["compound", "quantity", "number"],
 "data": [
  ["Nc1nc(-c2ccccn2)cc2c(Cl)cccc12", "growth inhibition", 8.75],
  ["O=C1CCCC1C(=O)OC1CCCC1 (stereo not drawn)", "growth inhibition", -11.4],
  ["CCOC(=O)C(=C=C=C(c1ccccc1)c1ccccc1)C(=O)OCC", "growth inhibition", 50.5],
  ["Cc1nn(C(=O)c2ccccc2O)c2c1C(c1ccco1)SC(N)=N2 (stereo not drawn)", "growth inhibition", 59.3],
  ["CCOC(=O)Cc1csc(/C=C/c2ccc(OC)c(OC)c2)n1", "growth inhibition", 21.4],
  ["CC(=O)CCCOC(C)=O", "growth inhibition", 31.6],
  ["O=C(c1ccccc1)c1ccc2c(c1)CCCC2", "growth inhibition", 71.4],
  ["CCCCCN1C(=O)CC(C(=O)OCC)=C1C", "growth inhibition", 9.1],
  ["CS(=O)(=O)C(c1nc2nnc(NC(=O)Nc3ccc(Cl)cc3)n2[nH]c1=O)c1nc2nnc(NC(=O)Nc3ccc(Cl)cc3)n2[nH]c1=O", "growth inhibition", 62.5],
  ["c1ccc(-c2cc(-c3cc(-c4ccccn4)[nH]n3)n[nH]2)nc1", "growth inhibition", 19.6],
  ["C#CC(CC(C)C)(CC(C)C)OC(=O)Nc1ccccc1", "growth inhibition", 97.3],
  ["CC(=O)Oc1c2c(c(OC(C)=O)c3c1n(C(C)=O)c1ccccc1n3C(C)=O)n(C(C)=O)c1ccccc1n2C(C)=O", "growth inhibition", 69.7],
  ["COc1ccc2nc3cc(Cl)ccc3c(NCCCCN(C)C)c2c1", "growth inhibition", 31.5],
  ["CC(C)CCCC(C)C1CCC2(C)C3=CCC4C(C)(CCC(O)C4(C)C)C3=CCC12C (stereo not drawn)", "growth inhibition", 90.8],
  ["O=C(COc1ccc(Br)cc1Br)N1N=C(c2ccc([N+](=O)[O-])o2)CC1(O)c1ccccc1 (stereo not drawn)", "growth inhibition", 58.8],
  ["CCN(CC)CCCC(C)Nc1cc(O)c2c(c1O)C(=O)c1ccccc1C2=O (stereo not drawn)", "growth inhibition", 98.8],
  ["O=[N+]([O-])c1cnc(F)c(Br)c1", "growth inhibition", 99.3],
  ["COc1ccc(/C=C2\\CN(C)C/C(=C\\c3ccc(OC)c(OC)c3OC)C2=O)c(OC)c1OC", "growth inhibition", 91.3],
  ["Cn1c(=S)c2[nH]c(SCCN3CCCC3)nc2n(C)c1=O", "growth inhibition", 97.2],
  ["CCCCCCCCCCn1cc[nH]c1=S", "growth inhibition", 99.3],
  ["CCCc1cc2c(cc1CN(C#N)Cc1cc3c(cc1CCC)OCO3)OCO2", "growth inhibition", 95],
  ["Cc1cccc(NC(=O)CCc2ccc(Cl)cc2)n1", "growth inhibition", -2.8],
  ["ClCc1ccc2ccc3ccc(CCl)nc3c2n1", "growth inhibition", 62]
]}
